# RUN DESCRIPTION: Hydrolysis of PAA standards in buffer (ABTS assay standard curve)
# Assay type: physicochemical
# ASSAY SETUP: B(OH)3 buffer; standard concentrations in B(OH)3, pH 8.5 buffer
READOUT: half-life (min)
Give a bare numeral; the unit min is implied.

Input line: Give half-life for the following compound: CC(=O)OO
Output line: 25
